FYI, the data here is from patent US20210246204A1.

# TARGET_OR_TEST_SYSTEM: human Siglec-7 on primary human monocyte-derived dendritic cells (human, UniProt Q9Y286 19-467)
# Sequence (Q9Y286 19-467): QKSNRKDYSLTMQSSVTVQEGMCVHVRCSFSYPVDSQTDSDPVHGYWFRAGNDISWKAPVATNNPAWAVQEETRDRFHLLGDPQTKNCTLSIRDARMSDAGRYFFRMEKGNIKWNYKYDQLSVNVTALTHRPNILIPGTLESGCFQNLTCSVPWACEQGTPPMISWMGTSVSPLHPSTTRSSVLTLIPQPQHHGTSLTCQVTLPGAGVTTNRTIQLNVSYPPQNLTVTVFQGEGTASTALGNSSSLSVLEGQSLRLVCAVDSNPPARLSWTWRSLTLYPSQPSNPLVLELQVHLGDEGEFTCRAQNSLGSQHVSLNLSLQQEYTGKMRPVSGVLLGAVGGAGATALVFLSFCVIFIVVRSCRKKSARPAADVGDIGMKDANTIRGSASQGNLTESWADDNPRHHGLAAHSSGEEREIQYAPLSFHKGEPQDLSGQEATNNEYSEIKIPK
# EXPERIMENTAL_PROTOCOL: cell-based or functional assay
MEASURED_ENDPOINT: Maximal downregulation (% Siglec-7 remaining) (%)
Give the number; % is assumed, so skip it.

## Input I'd like to know its Maximal downregulation (% Siglec-7 remaining). The binder in question is S7AB-H8.9 (antibody, V domains shown) VH: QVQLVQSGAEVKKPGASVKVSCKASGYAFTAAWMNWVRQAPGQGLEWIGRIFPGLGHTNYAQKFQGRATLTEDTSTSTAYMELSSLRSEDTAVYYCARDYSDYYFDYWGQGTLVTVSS VL: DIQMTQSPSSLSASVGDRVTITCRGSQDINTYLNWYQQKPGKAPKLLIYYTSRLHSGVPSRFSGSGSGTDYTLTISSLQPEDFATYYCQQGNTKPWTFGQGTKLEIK
## Output 3.1

## Input I'd like to know its Maximal downregulation (% Siglec-7 remaining). The binder in question is S7AB-H8.29.1 (antibody, V domains shown) VH: QVQLVQSGAEVKKPGASVKVSCKASGYAFTAAWMNWVRQAPGQRLEWIGRIFPGLGHTNYAQKFQGRATLTEDTSTSTAYMELSSLRSEDTAVYYCARDYSDYYFDYWGQGTLVTVSS VL: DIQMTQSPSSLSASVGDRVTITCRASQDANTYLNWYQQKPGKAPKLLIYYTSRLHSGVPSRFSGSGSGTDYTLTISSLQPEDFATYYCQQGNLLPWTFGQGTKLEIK
## Output 5.3

## Input I'd like to know its Maximal downregulation (% Siglec-7 remaining). The binder in question is S7AB-H8.13 (antibody, V domains shown) VH: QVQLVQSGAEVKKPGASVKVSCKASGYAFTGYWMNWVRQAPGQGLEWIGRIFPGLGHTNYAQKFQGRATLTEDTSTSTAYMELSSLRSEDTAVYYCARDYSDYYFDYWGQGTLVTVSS VL: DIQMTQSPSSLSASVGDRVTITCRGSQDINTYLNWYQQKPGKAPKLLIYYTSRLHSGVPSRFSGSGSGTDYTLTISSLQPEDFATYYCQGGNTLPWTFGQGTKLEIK
## Output 43.3

## Input I'd like to know its Maximal downregulation (% Siglec-7 remaining). The binder in question is S7AB-H8 (antibody, V domains shown, also called parental humanized antibody) VH: QVQLVQSGAEVKKPGASVKISCKASGYAFTNCWMNWVRQAPGQGLEWIGRIFPGNGHTNYAQKFQGRATLTEDTSTSTAYMELSSLRSEDTAVYYCARDYSDYYFDYWGQGTLVTVSS VL: DIQMTQSPSSLSASVGDRVTITCRASQDINTYLNWYQQKPGKAPKLLIYYTSRLHSGVPSRFSGSGSGTDYTLTISSLQPEDFATYYCQQGNTLPWTFGQGTKLEIK
## Output 18.3

## Input I'd like to know its Maximal downregulation (% Siglec-7 remaining). The binder in question is S7AB-H8.2 (antibody, V domains shown) VH: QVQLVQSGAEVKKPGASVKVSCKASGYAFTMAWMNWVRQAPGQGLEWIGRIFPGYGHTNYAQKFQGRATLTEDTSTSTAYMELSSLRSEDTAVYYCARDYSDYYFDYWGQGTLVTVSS VL: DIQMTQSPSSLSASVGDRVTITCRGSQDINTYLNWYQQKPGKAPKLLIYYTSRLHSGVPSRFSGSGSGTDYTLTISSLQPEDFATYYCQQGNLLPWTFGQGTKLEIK
## Output 3.3

## Input I'd like to know its Maximal downregulation (% Siglec-7 remaining). The binder in question is S7AB-H8.30.1 (antibody, V domains shown) VH: QVQLVQSGAEVKKPGASVKVSCKASGYAFTEAWMNWVRQAPGQRLEWIGRIFPGYGHTNYAQKFQGRATLTEDTSTSTAYMELSSLRSEDTAVYYCARDYSDYYFDYWGQGTLVTVSS VL: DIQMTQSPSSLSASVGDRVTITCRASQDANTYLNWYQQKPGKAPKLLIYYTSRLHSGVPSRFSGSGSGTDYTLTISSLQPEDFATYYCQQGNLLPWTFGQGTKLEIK
## Output 11.3

## Input I'd like to know its Maximal downregulation (% Siglec-7 remaining). The binder in question is S7AB-H8.16 (antibody, V domains shown) VH: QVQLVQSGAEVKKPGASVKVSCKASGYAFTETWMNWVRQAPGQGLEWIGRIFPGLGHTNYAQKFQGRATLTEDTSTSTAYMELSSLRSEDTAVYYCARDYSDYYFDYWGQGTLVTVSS VL: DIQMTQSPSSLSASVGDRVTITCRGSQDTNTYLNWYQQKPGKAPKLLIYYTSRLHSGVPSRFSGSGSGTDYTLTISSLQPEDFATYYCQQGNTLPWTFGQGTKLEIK
## Output 10.1

## Input I'd like to know its Maximal downregulation (% Siglec-7 remaining). The binder in question is S7AB-H8.23 (antibody, V domains shown) VH: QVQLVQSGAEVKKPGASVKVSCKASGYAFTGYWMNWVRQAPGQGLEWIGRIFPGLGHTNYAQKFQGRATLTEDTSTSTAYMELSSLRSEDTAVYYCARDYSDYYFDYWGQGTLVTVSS VL: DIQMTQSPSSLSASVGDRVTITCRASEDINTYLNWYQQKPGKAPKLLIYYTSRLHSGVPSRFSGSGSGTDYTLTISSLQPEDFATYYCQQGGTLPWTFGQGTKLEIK
## Output 17.2

## Input I'd like to know its Maximal downregulation (% Siglec-7 remaining). The binder in question is S7AB-H8.44.2 (antibody, V domains shown) VH: QVQLVQSGAEVKKPGASVKVSCKASGYAFTAAWMNWVRQARGQRLEWIGRIFPGLGHTNYAQKFQGRATLTEDTSTSTAYMELSSLRSEDTAVYYCARDYSDYYFDYWGQGTLVTVSS VL: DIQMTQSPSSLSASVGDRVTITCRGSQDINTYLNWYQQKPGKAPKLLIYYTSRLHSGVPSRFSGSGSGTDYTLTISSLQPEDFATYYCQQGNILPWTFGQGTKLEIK
## Output 3.3

## Input I'd like to know its Maximal downregulation (% Siglec-7 remaining). The binder in question is S7AB-H8.40 (antibody, V domains shown) VH: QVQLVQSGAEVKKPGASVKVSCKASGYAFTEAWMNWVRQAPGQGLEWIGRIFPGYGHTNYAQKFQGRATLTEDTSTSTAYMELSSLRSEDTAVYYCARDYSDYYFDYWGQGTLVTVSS VL: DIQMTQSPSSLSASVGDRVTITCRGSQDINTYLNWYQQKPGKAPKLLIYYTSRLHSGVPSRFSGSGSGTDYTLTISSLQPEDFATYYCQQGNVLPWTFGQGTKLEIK
## Output 9.4
